Reported values of loss of binding vs wild type for individual entries
tested.target: T1, hiR2-FL-R543A-T7 (human, UniProt Q6PJF5 1-856)
T1 sequence: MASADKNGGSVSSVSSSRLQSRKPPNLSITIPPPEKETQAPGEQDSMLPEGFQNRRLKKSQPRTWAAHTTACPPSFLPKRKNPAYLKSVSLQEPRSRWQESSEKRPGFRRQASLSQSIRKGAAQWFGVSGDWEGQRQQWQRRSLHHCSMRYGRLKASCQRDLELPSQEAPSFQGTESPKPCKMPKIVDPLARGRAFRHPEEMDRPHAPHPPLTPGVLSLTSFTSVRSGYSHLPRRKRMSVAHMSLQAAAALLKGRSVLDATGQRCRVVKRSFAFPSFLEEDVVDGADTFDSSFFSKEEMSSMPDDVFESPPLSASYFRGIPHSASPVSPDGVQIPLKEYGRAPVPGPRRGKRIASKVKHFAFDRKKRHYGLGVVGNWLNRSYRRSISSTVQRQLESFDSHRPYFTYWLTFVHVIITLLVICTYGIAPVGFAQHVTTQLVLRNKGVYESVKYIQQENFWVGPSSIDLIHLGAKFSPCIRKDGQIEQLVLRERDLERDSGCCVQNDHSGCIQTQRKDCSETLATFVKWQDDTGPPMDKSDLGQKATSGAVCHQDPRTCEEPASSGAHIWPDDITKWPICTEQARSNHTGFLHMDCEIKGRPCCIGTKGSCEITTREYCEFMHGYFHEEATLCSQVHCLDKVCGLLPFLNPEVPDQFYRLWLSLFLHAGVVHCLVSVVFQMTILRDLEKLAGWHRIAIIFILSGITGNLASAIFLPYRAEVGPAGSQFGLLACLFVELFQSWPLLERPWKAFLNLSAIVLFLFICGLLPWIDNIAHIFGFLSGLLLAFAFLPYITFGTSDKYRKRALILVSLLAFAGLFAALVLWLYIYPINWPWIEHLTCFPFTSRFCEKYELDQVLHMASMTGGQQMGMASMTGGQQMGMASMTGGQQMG
assay.summary: FACS on MEF-DKO cells expressing the variant, 3 µg/ml antibody

INSERT INTO measurements (binder, quantity, reading) VALUES
  ('antibody 5 (antibody, V domains shown, mouse IgG, kappa light chain; also called clone #5; purified antibody 5) VH: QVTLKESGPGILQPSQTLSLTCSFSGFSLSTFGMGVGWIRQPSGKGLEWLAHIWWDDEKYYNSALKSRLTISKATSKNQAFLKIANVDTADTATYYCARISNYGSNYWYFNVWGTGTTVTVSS VL: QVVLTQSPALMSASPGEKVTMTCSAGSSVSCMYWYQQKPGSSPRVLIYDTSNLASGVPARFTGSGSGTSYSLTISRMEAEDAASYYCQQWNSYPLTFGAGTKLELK', 'loss of binding vs wild type', '≥ 60%'),
  ('antibody 43 (antibody, V domains shown, mouse IgG, kappa light chain; also called clone #43; purified antibody 43) VH: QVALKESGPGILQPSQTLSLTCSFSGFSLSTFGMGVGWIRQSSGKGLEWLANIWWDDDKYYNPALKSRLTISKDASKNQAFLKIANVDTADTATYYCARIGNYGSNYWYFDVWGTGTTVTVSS VL: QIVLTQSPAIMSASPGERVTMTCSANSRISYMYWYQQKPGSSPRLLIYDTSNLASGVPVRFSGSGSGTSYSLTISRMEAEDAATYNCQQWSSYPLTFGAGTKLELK', 'loss of binding vs wild type', '≥ 95%');

Would you kindly look at the next entry?
Input antibody 42 (antibody, V domains shown, mouse IgG, kappa light chain; also called clone #42; purified antibody 42) VH: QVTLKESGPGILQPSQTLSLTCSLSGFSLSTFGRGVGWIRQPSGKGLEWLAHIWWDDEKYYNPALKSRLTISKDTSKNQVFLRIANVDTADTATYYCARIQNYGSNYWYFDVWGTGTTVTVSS VL: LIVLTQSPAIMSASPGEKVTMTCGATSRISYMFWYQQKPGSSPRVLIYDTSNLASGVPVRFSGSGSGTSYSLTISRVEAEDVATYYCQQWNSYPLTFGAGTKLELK . Output loss of binding vs wild type: ≥ 60%

Source: patent US20240287172A1
